- system-under-test: Nicotinic acetylcholine receptor alpha4/beta2/alpha5 (Homo sapiens, UniProt P17787+P30532+P43681)
- Sequence (P17787 whole entry): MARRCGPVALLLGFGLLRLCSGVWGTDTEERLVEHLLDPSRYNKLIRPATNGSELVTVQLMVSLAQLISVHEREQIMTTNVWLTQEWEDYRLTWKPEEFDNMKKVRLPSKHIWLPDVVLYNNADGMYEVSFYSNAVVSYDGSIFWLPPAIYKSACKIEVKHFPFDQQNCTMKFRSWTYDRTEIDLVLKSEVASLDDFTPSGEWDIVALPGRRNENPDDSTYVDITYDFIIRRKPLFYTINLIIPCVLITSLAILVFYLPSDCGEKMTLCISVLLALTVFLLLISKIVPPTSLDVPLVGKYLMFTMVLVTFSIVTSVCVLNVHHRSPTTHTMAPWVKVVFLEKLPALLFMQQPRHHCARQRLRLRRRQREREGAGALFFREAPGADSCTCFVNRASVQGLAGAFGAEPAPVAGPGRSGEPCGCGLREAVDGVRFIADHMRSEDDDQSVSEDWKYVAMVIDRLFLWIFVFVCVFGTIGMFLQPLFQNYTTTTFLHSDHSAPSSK
- Sequence (P43681 whole entry): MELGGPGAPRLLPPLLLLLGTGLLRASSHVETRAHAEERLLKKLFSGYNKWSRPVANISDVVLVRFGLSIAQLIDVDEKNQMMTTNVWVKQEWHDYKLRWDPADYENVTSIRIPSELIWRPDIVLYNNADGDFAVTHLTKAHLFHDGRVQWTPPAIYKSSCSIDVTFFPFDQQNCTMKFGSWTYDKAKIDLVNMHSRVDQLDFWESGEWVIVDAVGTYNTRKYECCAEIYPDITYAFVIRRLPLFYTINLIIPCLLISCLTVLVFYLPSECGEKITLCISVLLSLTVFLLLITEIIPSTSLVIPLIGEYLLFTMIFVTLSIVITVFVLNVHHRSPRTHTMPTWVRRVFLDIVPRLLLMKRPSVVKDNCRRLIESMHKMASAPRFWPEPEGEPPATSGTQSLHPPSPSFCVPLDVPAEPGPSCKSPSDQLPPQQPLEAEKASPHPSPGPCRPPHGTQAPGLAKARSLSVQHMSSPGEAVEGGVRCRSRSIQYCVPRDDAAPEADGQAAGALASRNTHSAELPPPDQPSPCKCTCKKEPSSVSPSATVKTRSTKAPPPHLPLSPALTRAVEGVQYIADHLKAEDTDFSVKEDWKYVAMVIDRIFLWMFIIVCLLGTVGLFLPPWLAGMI
- Sequence (P30532 whole entry): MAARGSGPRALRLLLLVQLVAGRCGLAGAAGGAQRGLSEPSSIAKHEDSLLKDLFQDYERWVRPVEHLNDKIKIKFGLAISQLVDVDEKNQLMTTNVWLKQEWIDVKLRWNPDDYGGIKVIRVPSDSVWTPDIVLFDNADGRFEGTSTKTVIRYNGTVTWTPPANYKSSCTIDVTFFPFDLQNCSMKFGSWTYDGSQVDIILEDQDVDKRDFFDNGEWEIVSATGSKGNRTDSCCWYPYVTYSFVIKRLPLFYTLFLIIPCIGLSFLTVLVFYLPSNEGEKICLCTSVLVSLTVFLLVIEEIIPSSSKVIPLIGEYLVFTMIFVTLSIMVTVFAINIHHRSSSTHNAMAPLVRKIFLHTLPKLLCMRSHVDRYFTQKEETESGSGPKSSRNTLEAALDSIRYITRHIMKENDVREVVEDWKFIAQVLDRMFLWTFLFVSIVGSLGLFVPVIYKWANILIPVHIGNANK
- test: Positive allosteric modulation of human alpha4beta2alpha5 nACHR expressed in HEK-tsA201 cells assessed as potentiation of nicotine-induced current preincubated for 15 mins followed by nicotine-treatment by fluorometric analysis
experimental-readout: EC50 (nM)
One number for each entry, in nM.

smiles_text=O=[N+]([O-])c1ccc(-c2nc(-c3cccnc3)no2)cc1 units_text=nM measured_value=1700
smiles_text=c1cncc(-c2noc(-c3cccnc3)n2)c1 units_text=nM measured_value=1000
smiles_text=O=[N+]([O-])c1cccc(-c2nc(-c3cccnc3)no2)c1 units_text=nM measured_value=690
smiles_text=c1cncc(-c2nnn(-c3cccnc3)n2)c1 units_text=nM measured_value=700
smiles_text=N#Cc1cccc(-n2nnc(-c3cccnc3)n2)c1 units_text=nM measured_value=2000

Below are some compounds; for each one, tell me its EC50.
1. N#Cc1cccc(-c2nc(-c3cccnc3)no2)c1
2. N#Cc1ccc(-n2nnc(-c3cccnc3)n2)cc1
3. Fc1ccc(-c2nc(-c3cccnc3)no2)cc1F

Result ::
[790, 2200, 1300]

---

- system-under-test: Nicotinic acetylcholine receptor alpha4/beta2/alpha5 (Homo sapiens) (UniProt P17787+P43681+P30532)
- test: Agonist activity at human alpha4beta2alpha5 nACHR expressed in HEK-tsA201 cells by fluorometric analysis
- Type: cell-based
Calls of active or inactive are those of the source. The rule behind the calls is not given here.
experimental-readout: Activity

smiles_text=N#Cc1cccc(-n2cc(-c3cccnc3)nn2)c1 measured_value=inactive
smiles_text=FC(F)(F)c1cccc(-c2nc(-c3cccnc3)no2)c1 measured_value=inactive
smiles_text=N#Cc1cccc(-c2ccn(-c3cccnc3)n2)c1 measured_value=inactive

---

- test: Drug uptake in mouse brain at 10 mg/kg, ip after 2 hrs
- Format: ADME, organism-based
- Design: dose 10 mg/kg, route intraperitoneal
- protocol-conditions: read-out: Drug uptake
experimental-readout: concentration at 2 h (µM)
One number for each entry, in µM.

Query N#Cc1cccc(-n2nnc(-c3cccnc3)n2)c1 yields concentration at 2 h of 4.4

---

- system-under-test: Nicotinic acetylcholine receptor alpha4/beta2/alpha5 (Homo sapiens) (UniProt P17787+P43681+P30532)
- test: Positive allosteric modulation of human alpha4beta2alpha5 nACHR expressed in HEK-tsA201 cells assessed as potentiation of nicotine-induced current at 1 uM preincubated for 15 mins followed by nicotine-treatment by fluorometric analysis
- Format: cell-based
Calls of active or inactive are those of the source. No cut-off for these calls is given here.
experimental-readout: Activity

smiles_text=COc1cc(OC)cc(-n2nnc(-c3cccnc3)n2)c1 measured_value=inactive
smiles_text=N#Cc1cccc(-c2nnc(-c3cccnc3)[nH]2)c1 measured_value=inactive
smiles_text=COc1cccc(-c2nc(-c3cccnc3)no2)c1 measured_value=inactive
smiles_text=O=[N+]([O-])c1ccccc1-c1nc(-c2cccnc2)no1 measured_value=inactive
smiles_text=N#Cc1cccc(-c2nc(-c3ccccn3)no2)c1 measured_value=inactive
smiles_text=N#Cc1cccc(-n2nnc(-c3cccnc3)n2)c1 measured_value="> 50%"

Batch of 6 molecules: report Activity for each.
1. COc1ccc(OC)c(-n2nnc(-c3cccnc3)n2)c1
2. N#Cc1cccc(-n2cnc(-c3cccnc3)n2)c1
3. NC(=O)c1cccc(-n2nnc(-c3cccnc3)n2)c1
4. N#Cc1cccc(-c2cn(-c3cccnc3)nn2)c1
5. O=[N+]([O-])c1cccc(-c2nc(-c3cccnc3)no2)c1
6. c1cncc(-c2nnn(-c3cccnc3)n2)c1

Result ::
inactive
inactive
inactive
inactive
> 50%
> 50%

For every item in the list below, what is its measured Activity?
1. FC(F)(F)c1cccc(-c2nc(-c3cccnc3)no2)c1
2. N#Cc1cccc(-c2cn(-c3cccnc3)cn2)c1
3. FC(F)(F)Oc1cccc(-c2nc(-c3cccnc3)no2)c1
4. Clc1ccccc1-n1nnc(-c2cccnc2)n1
5. C[n+]1cccc(-c2nnn(-c3cccc(C#N)c3)n2)c1
6. Fc1ccc(-c2nc(-c3cccnc3)no2)cc1F
7. N#Cc1cccc(-n2nnc(-c3cnccc3Cl)n2)c1
8. N#Cc1cccc(-n2cc(-c3cccnc3)nn2)c1

Result ::
["inactive", "inactive", "inactive", "inactive", "inactive", "> 50%", "inactive", "inactive"]

Per the records, this molecule ( N#Cc1cccc(-c2nc(-c3cccnc3)no2)c1 ) has Activity equal to > 50%
